Biological target: Kappa-type opioid receptor (Homo sapiens, UniProt P41145)
Sequence (P41145 whole entry): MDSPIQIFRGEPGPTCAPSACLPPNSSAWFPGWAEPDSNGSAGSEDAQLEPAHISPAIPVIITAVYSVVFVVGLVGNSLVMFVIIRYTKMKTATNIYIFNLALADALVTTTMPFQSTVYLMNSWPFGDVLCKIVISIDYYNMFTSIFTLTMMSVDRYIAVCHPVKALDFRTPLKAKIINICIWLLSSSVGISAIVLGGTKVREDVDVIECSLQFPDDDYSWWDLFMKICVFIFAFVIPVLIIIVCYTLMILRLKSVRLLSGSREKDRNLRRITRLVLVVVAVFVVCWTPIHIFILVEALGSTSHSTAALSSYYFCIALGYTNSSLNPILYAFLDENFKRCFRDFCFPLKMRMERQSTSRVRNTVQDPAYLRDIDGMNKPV
Experiment: Agonist activity at human recombinant kappa opioid receptor expressed in CHO cells after 2 hrs by [35S]GTPgammaS binding assay relative to control
Format: functional, cell-based
Endpoint Label: Emax (%)
The figure you give is taken to be in %; do not add the unit.

# query: Emax of entry "CCOCCN1CC[C@]23Cc4nc5ccccc5cc4C[C@@]2(O)[C@H]1Cc1ccc(O)cc13"
39.4

Name the recorded Emax for "CN1CC[C@]23Cc4nc5ccccc5cc4C[C@@]2(O)[C@H]1Cc1ccc(O)cc13" .
51.5

Quick one: Emax for "OCCN1CC[C@]23Cc4nc5ccccc5cc4C[C@@]2(O)[C@H]1Cc1ccc(O)cc13" ?
27.9

For the compound "C[C@@H](O)CN1CC[C@]23Cc4nc5ccccc5cc4C[C@@]2(O)[C@H]1Cc1ccc(O)cc13" , what Emax is on record?
49.8

Return reported Emax; argument: "Oc1ccc2c(c1)[C@]13CCN(C[C@@H]4CCCO4)[C@H](C2)[C@]1(O)Cc1cc2ccccc2nc1C3"
35.9

Item under review: "CCOCCCN1CC[C@]23Cc4nc5ccccc5cc4C[C@@]2(O)[C@H]1Cc1ccc(O)cc13" . Reported Emax?
14.2
